What MFI was measured for each of the following?
molecular target: T1, human TMEM106B (human, UniProt Q9NUM4 2-274); assay: FACS A549;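 note: flow cytometry of cells incubated on ice for 1 h with hybridoma supernatant or purified antibody at 10 µg/mL, dead propidium iodide-positive cells gated out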
T1 construct: full-length, transiently expressed on HEK293 cells, or natively expressed on HeLa, U251 and A549 cells (the cell is named under assay); also the source of the Pepscan peptides; also called huTMEM106B; huTMEM
Record the value in MFI, omitting the unit from your answer.

Incoming: Can you share its MFI? I mean this binder: TM-21 (antibody, V domains shown) VH: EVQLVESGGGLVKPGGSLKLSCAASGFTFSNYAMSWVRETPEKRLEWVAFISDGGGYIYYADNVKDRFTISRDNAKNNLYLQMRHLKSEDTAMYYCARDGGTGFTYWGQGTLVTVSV VL: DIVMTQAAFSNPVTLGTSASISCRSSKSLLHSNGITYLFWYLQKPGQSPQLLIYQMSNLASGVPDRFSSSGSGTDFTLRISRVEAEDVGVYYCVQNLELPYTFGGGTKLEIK
Outgoing: 1030

Incoming: Can you share its MFI? I mean this binder: TM-35 (antibody, V domains shown) VH: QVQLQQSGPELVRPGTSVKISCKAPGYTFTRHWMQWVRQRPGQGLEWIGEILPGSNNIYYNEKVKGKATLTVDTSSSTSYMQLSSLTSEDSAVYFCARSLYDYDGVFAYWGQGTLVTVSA VL: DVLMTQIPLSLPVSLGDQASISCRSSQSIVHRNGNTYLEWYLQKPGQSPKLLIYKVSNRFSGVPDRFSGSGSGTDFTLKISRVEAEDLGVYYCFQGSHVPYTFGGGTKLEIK
Outgoing: 982

Incoming: Can you share its MFI? I mean this binder: TM-5 (antibody, V domains shown) VH: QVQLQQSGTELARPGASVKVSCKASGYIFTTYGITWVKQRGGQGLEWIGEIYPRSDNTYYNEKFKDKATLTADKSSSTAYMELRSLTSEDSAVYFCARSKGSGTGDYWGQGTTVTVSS VL: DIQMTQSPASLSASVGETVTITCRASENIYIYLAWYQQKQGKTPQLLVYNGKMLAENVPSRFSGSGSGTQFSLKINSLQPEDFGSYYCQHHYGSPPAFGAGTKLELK
Outgoing: 1170

FYI, the data here is from patent US20200339680A1.
